target: recombinant human cGAS (aa147-522) (Homo sapiens, UniProt Q8N884); construct: recombinant human cGAS (aa147-522); His6-SUMO (cleaved yes); made in house; host or cells: E. coli BL21/pLys; assay: In vitro inhibition assay of cGAS activity (ATP consumption, KinaseGlo Max); assay type: biochemical; conditions: Table 3, read-out: cGAS Inhibition Results IC50
Sequence (Q8N884 147-522): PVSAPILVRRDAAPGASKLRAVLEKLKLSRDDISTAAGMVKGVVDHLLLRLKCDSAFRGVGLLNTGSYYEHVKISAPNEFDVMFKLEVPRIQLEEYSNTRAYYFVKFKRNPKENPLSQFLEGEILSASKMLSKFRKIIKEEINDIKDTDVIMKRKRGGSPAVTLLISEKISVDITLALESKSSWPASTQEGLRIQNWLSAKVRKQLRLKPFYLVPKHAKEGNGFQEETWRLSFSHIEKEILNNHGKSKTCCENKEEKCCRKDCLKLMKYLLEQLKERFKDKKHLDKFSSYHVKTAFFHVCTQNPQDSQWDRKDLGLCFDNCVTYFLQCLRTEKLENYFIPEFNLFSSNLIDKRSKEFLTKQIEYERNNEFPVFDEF
// values below are reported IC50

INSERT INTO measurements (compound, measurement_target, readout, data_value) VALUES
  ('OC1CC2CCC(C1)N2c1cc(-n2ccnc2)c2ccc(Cl)c(Cl)c2n1 (stereo not shown) [I-490]', 'recombinant human cGAS (aa147-522) (Homo sapiens, UniProt Q8N884)', 'IC50', '< 2000 nM');

As a next step, examine the compound that follows.
Record O=C(O)CCOC[C@@H]1C[C@H](O)CN1c1cc(-n2ccnc2)c2ccc(Cl)c(Cl)c2n1 [I-702] . Reported IC50: < 2000 nM

----------
// values below are reported IC50
target: recombinant human cGAS (aa147-522) (Homo sapiens); construct: recombinant human cGAS (aa147-522); His6-SUMO (cleaved yes); made in house; host or cells: E. coli BL21/pLys; assay: In vitro inhibition assay of cGAS activity (ATP consumption, KinaseGlo Max); format: biochemical; conditions: Table 2, read-out: cGAS Inhibition Results IC50

INSERT INTO measurements (compound, measurement_target, data_value) VALUES
  ('O=C(O)C[C@@H]1CCCN1c1cc(-c2cn[nH]c2)c2ccc(Cl)c(Cl)c2n1', 'recombinant human cGAS (aa147-522) (Homo sapiens)', '< 2 µM'),
  ('Fc1ccc2c(-n3ccnc3)ccnc2c1', 'recombinant human cGAS (aa147-522) (Homo sapiens)', '> 30 µM'),
  ('N#Cc1cn(-c2cc(-c3ccccc3)nc3cc(Cl)ccc23)cn1', 'recombinant human cGAS (aa147-522) (Homo sapiens)', '> 30 µM'),
  ('Clc1ccc2c(-n3ccnc3)cc(Nc3ccccc3)nc2c1', 'recombinant human cGAS (aa147-522) (Homo sapiens)', '2 to 30 µM'),
  ('Clc1ccc2c(-c3cn[nH]c3)cc(NCC3COCCN3)nc2c1Cl (stereo not drawn)', 'recombinant human cGAS (aa147-522) (Homo sapiens)', '> 30 µM'),
  ('O=S(=O)(NC1CCCN(c2cc(-n3ccnc3)c3ccc(Cl)cc3n2)C1)c1ccccc1 (stereo not drawn)', 'recombinant human cGAS (aa147-522) (Homo sapiens)', '> 30 µM');

Considering O=C(O)c1cccc(COc2cc(-n3ccnc3)c3ccc(Cl)cc3n2)c1 , its IC50 with recombinant human cGAS (aa147-522) (Homo sapiens) was recorded as 2 to 30 µM

Considering O=C(O)C1CCCCC1Nc1cc(-n2ccnc2)c2ccc(Cl)cc2n1 (stereo not drawn) , its IC50 with recombinant human cGAS (aa147-522) (Homo sapiens) was recorded as > 30 µM

Considering COC(=O)[C@@H]1C[C@H](O)CN1c1cc(-c2cn[nH]c2)c2ccc(Cl)c(Cl)c2n1 , its IC50 with recombinant human cGAS (aa147-522) (Homo sapiens) was recorded as 2 to 30 µM

Considering Clc1ccc2c(-c3cn[nH]c3)cc(NCC3CNCCO3)nc2c1Cl (stereo not drawn) , its IC50 with recombinant human cGAS (aa147-522) (Homo sapiens) was recorded as 2 to 30 µM

Considering OC[C@H]1CCCN1c1cc(-n2ccnc2)c2ccc(Cl)c(Cl)c2n1 , its IC50 with recombinant human cGAS (aa147-522) (Homo sapiens) was recorded as < 2 µM

Considering CN(CCC(=O)O)c1cc(-n2ccnc2)c2ccc(Cl)c(Cl)c2n1 , its IC50 with recombinant human cGAS (aa147-522) (Homo sapiens) was recorded as < 2 µM

----------
// values below are reported pIC50
biological target: recombinant human cGAS (aa147-522) (Homo sapiens, UniProt Q8N884); construct: recombinant human cGAS (aa147-522); His6-SUMO (cleaved yes); made in house; host or cells: E. coli BL21/pLys; experiment: In vitro inhibition assay of cGAS activity (ATP consumption, KinaseGlo Max); type: biochemical; conditions: Table 2, read-out: cGAS Inhibition Results IC50
pIC50: −log10 of the molar value.

Example entries begin here.
INSERT INTO measurements (compound, readout, data_value) VALUES
  ('O=C(O)C1CN(c2cc(-n3ccnc3)c3ccc(Cl)c(Cl)c3n2)CCO1 (centres unmarked) [I-91]', 'pIC50', '> 5.70'),
  ('NS(=O)(=O)CCNc1cc(-n2ccnc2)c2ccc(Cl)c(Cl)c2n1 [I-200]', 'pIC50', '> 5.70'),
  ('O=C(O)c1ccccc1Oc1cc(-n2ccnc2)c2ccc(Cl)cc2n1 [I-283]', 'pIC50', '< 4.52'),
  ('CC(=O)c1cn(-c2cc(-c3ccccc3)nc3cc(Cl)ccc23)cn1 [I-66]', 'pIC50', '< 4.52'),
  ('O=C(O)[C@@H]1CCCN1c1cc(-c2cn[nH]c2)c2ccc(Cl)c(Cl)c2n1 [I-435]', 'pIC50', '> 5.70');

Record O=C(O)CN(CCCO)c1cc(-n2ccnc2)c2ccc(Cl)c(Cl)c2n1 [I-173] . Reported pIC50: 4.52 to 5.70

Record COc1ccc2c(-c3cn[nH]c3)cc(NCCO)nc2c1 [I-377] . Reported pIC50: < 4.52

Record CN(CCN(C)S(N)(=O)=O)c1cc(-n2ccnc2)c2ccc(Cl)c(Cl)c2n1 [I-224] . Reported pIC50: > 5.70

Record O=C(O)[C@@H]1COCCN1c1cc(-c2cn[nH]c2)c2ccc(Cl)c(Cl)c2n1 [I-93] . Reported pIC50: > 5.70

----------
biological target: recombinant human cGAS (aa147-522) (Homo sapiens); construct: recombinant human cGAS (aa147-522); His6-SUMO (cleaved yes); made in house; host or cells: E. coli BL21/pLys; test: In vitro inhibition assay of cGAS activity (ATP consumption, KinaseGlo Max); format: biochemical; conditions: Table 3, read-out: cGAS Inhibition Results IC50
pIC50: −log10 of the molar value.
// values below are reported pIC50

Example entries begin here.
INSERT INTO results (molecule, readout, data_value) VALUES
  ('O=C(O)c1ccc(S(=O)(=O)N[C@@H]2C[C@@H](C(=O)O)N(c3cc(-n4ccnc4)c4ccc(Cl)c(Cl)c4n3)C2)cc1', 'pIC50', '> 5.70'),
  ('O=C(O)c1ccn(C[C@@H]2CCCN2c2cc(-n3ccnc3)c3ccc(Cl)c(Cl)c3n2)c1', 'pIC50', '> 5.70'),
  ('CC(C)N(CCCOc1ccccc1C(=O)O)c1cc(-n2ccnc2)c2ccc(Cl)c(Cl)c2n1', 'pIC50', '4.52 to 5.70'),
  ('O=C(O)C1CC2CCC1N2c1cc(-n2ccnc2)c2ccc(Cl)c(Cl)c2n1 (stereo not drawn)', 'pIC50', '> 5.70'),
  ('COC(=O)[C@@H]1C[C@H](C)CN1c1cc(-n2ccnc2)c2ccc(Cl)c(Cl)c2n1', 'pIC50', '4.52 to 5.70');

Record CN(CCN(CC(=O)O)S(C)(=O)=O)c1cc(-n2ccnc2)c2ccc(Cl)c(Cl)c2n1 . Reported pIC50: > 5.70

Record COC(=O)CCOC[C@@H]1CN(c2cc(-c3cn[nH]c3)c3ccc(Cl)c(Cl)c3n2)CCO1 . Reported pIC50: > 5.70

Record O=C(O)C(O)CC[C@@H]1CCCN1c1cc(-n2ccnc2)c2ccc(Cl)c(Cl)c2n1 (stereo partly drawn) . Reported pIC50: > 5.70

Record O=C(O)c1cnn(CC[C@@H]2CCCN2c2cc(-n3ccnc3)c3ccc(Cl)c(Cl)c3n2)c1 . Reported pIC50: > 5.70

Record CN(CCS(=O)(=O)N1CCC(C(=O)O)C1)c1cc(-n2ccnc2)c2ccc(Cl)c(Cl)c2n1 (stereo not drawn) . Reported pIC50: > 5.70

Record O=C(O)[C@@H]1C[C@@H]2CCC[C@@H]2N1c1cc(-n2ccnc2)c2ccc(Cl)c(Cl)c2n1 . Reported pIC50: > 5.70

Record O=C(O)C[C@@H]1CCCN1C(=O)[C@@H]1CCCN1c1cc(-n2ccnc2)c2ccc(Cl)c(Cl)c2n1 . Reported pIC50: > 5.70

Record O=C(O)CCOC[C@@H]1[C@@H](O)CCN1c1cc(-n2ccnc2)c2ccc(Cl)c(Cl)c2n1 . Reported pIC50: > 5.70

Record O=C(O)CCOCC1CN(c2cc(-n3ccnc3)c3ccc(Cl)c(Cl)c3n2)CCCO1 (stereo not drawn) . Reported pIC50: > 5.70

Record O=C(C[C@@H]1CCCN1c1cc(-n2ccnc2)c2ccc(Cl)c(Cl)c2n1)NC1CCNC1=O (stereo partly drawn) . Reported pIC50: > 5.70

Record O=C(O)CCOC[C@@H]1C[C@@H](N2CCOCC2)CN1c1cc(-n2ccnc2)c2ccc(Cl)c(Cl)c2n1 . Reported pIC50: > 5.70

Record NS(=O)(=O)C1CCN(C(=O)C[C@@H]2CCCN2c2cc(-n3ccnc3)c3ccc(Cl)c(Cl)c3n2)C1 (stereo partly drawn) . Reported pIC50: 4.52 to 5.70
